Cited source: PubChem BioAssay AID488839

Target: Cyclin-dependent kinase 5 (Homo sapiens) + Cyclin-dependent kinase 5 activator 1 (Homo sapiens) (UniProt Q00535+Q15078)
Sequence (Q00535 whole entry, looked up): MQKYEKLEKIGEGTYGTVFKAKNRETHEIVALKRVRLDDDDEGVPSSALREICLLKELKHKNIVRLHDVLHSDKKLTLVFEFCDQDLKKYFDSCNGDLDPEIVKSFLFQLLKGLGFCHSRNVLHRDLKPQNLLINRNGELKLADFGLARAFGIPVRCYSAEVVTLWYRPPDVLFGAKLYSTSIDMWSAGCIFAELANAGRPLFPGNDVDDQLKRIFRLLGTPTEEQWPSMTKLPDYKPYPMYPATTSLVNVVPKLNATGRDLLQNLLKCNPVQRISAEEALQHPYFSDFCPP
Sequence (Q15078 whole entry, looked up): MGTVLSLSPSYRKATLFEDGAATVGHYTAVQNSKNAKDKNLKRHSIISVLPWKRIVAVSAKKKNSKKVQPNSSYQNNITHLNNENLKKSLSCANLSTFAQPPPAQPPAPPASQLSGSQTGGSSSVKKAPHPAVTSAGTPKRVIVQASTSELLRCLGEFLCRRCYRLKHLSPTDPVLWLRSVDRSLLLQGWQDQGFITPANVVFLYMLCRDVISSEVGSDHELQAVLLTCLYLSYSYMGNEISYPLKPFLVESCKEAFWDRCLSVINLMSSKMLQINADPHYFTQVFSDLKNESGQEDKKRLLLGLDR
Experiment: CDK5/p35 phosphotransfer blockade – biochemical, single concentration, primary screen (AID 488839);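 further: plate controls were DMSO neutral control for no effect and GW8510 at 10 µM for full effect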
Conditions: Recombinant CDK5/p35, ADP-Glo luminescence, 60 min; at 10 µM; stronger effect = higher value
The campaign covered roughly 330,000 compounds. About 35 (0.01%) were called active. Not all results are given here.
reported property: inhibition (%)
Respond with the bare value in %.

In [3]: df
Out[3]:
                                   compound  value_measured
0  Brc1ccc(-c2n(-c3ccccn3)c3ccccc3[n+]2-c2ccccn2)cc1            3.32
1          CCCNC(=O)c1c(Cl)cnn1-c1ccc(C)cc1          -0.745
2      CN(CC(=O)Nc1ccc(F)cc1)CC(=O)N1CCCCC1            1.08

[ask] Param item = N/C(=N\OC(=O)Nc1ccccc1)c1ccno1 ; retrieve measured inhibition.
[reply] -1.08

[ask] Param item = COc1ccc(-c2nc3n(c(=O)c2C#N)CCS3)c(OC)c1 ; retrieve measured inhibition.
[reply] 0.425

[ask] Param item = CCCCCCCC[n+]1cccc(C(=O)N2c3c(nc(N)[nH]c3=O)NC(C)C2C)c1 (stereo unspecified) ; retrieve measured inhibition.
[reply] -4.49

---

Biological target: Cyclin-dependent kinase 5 (Homo sapiens) + Cyclin-dependent kinase 5 activator 1 (Homo sapiens) (UniProt Q00535+Q15078)
Assay: CDK5/p35 phosphotransfer blockade – biochemical, single concentration, primary screen (AID 488839);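 further: plate controls were DMSO neutral control for no effect and GW8510 at 10 µM for full effect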
Conditions: Recombinant CDK5/p35, ADP-Glo luminescence, 60 min; at 10 µM; stronger effect = higher value
About 35 (0.01%) of roughly 330,000 compounds were called active. These entries were drawn from the full list.
Items are presented alongside their recorded inhibition.
Respond with the bare value in %.

Some compounds with recorded inhibition:
In [3]: df
Out[3]:
                                 smiles_str  value_measured
0  CCc1c(C)nc2c(-c3ccccc3)c(C)nn2c1Nc1ccc(NC(C)=O)cc1           0.169
1  CCOC(=O)N1CCC(NC(=O)Cn2cc3c(n2)CCCCC3)CC1            3.25

Turning now to a further compound:
[ask] Param item = CCc1ccc(C(=O)CSc2nnc(C)c(=O)[nH]2)cc1 ; retrieve measured inhibition.
[reply] -0.74

---

Biological target: Cyclin-dependent kinase 5 (Homo sapiens) + Cyclin-dependent kinase 5 activator 1 (Homo sapiens) (UniProt Q00535+Q15078)
Test: CDK5/p35 phosphotransfer blockade – biochemical, single concentration, primary screen (AID 488839);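 further: plate controls were DMSO neutral control for no effect and GW8510 at 10 µM for full effect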
Conditions: Recombinant CDK5/p35, ADP-Glo luminescence, 60 min; at 10 µM; stronger effect = higher value
Screen size: about 330,000 compounds; about 35 (0.01%) were called active. The list is a sample of the results.
reported property: inhibition (%)
Respond with the bare value in %.

Some compounds with recorded inhibition:
In [3]: df
Out[3]:
                                   compound  reported_property  units_of_measure  value_measured
0  COc1ccc(OC)c(/C(C)=N\NC(=O)c2cc3cc(Cl)ccc3n2C)c1         inhibition                 %           0.107
1     Cc1ccc(C)c(NC(=O)COC(=O)CSc2ccccc2)c1         inhibition                 %          -0.511
2  COc1ccccc1NC(=O)c1ccc(N2CC3CC(C2)c2cccc(=O)n2C3)c(NC(=O)c2cccnc2)c1 (stereo not given)         inhibition                 %           -1.98
3  CS(=O)(=O)N(CC(=O)N1CCCCCC1)c1cccc(Cl)c1Cl         inhibition                 %           0.703
4  COc1ccc2c(c1)C=CC1(O2)N(CCO)c2ccccc2C1(C)C (stereo not given)         inhibition                 %             1.4

[ask] Param item = O=S(=O)(NCCSc1ccccn1)c1ccc(Cl)cc1 ; retrieve measured inhibition.
[reply] 0.39

[ask] Param item = CCn1cc(CN2CCCC(CNS(=O)(=O)Cc3ccccc3)C2)cn1 (stereo not given) ; retrieve measured inhibition.
[reply] 0.0333

[ask] Param item = COC(=O)Nc1ncc(CN2C(=O)c3ccccc3C2=O)s1 ; retrieve measured inhibition.
[reply] 0.873

[ask] Param item = COC(=O)Cc1ccc(OCC(=O)NC2CCCC2)cc1 ; retrieve measured inhibition.
[reply] 0.995

[ask] Param item = CC(C)NC(=O)COCc1cc(-c2ccc3c(c2)OCO3)on1 ; retrieve measured inhibition.
[reply] -3.05
